Measured values drawn from the supplement of paper PMC10065799 for this set.

Molecular target: Fes (UniProt P07332)
Sequence (P07332 whole entry, looked up): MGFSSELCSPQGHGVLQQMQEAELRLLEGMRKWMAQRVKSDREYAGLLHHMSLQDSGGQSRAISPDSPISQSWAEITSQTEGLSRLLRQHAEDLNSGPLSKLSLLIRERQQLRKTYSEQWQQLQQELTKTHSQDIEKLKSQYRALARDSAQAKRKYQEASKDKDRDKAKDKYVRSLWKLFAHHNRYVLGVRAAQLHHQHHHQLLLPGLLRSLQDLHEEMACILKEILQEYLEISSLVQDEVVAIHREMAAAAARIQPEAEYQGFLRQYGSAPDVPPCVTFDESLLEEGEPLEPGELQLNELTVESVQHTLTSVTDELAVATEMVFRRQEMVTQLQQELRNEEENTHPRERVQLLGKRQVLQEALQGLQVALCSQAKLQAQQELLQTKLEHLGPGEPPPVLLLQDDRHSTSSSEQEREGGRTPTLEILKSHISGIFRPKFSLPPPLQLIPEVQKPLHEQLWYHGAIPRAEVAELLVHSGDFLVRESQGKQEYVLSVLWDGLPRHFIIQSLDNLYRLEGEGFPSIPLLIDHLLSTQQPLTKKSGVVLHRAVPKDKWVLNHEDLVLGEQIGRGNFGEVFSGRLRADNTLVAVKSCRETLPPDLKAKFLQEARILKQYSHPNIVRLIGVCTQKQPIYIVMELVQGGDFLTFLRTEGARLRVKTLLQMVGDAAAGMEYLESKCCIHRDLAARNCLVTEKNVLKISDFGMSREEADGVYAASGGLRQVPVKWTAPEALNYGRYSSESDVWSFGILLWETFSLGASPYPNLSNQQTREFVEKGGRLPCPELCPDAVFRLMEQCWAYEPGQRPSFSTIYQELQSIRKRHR
Test: phosphorylation enrichment, bacterial display (enrichment ratio); higher = better substrate or ligand; peptides without Tyr show the background
I'd be grateful if you could share measured phosphorylation enrichment for these entries.
The answer should be written as a number, with no unit following it.

The recorded phosphorylation enrichment with Fes (UniProt P07332) for LFSLGYHQSLW [GANAB_Y396_R400L] was 0.986

The recorded phosphorylation enrichment with Fes (UniProt P07332) for AAVDTVCRHNY [HLA-DRB1_Y107_Y107V] was 0.842

The recorded phosphorylation enrichment with Fes (UniProt P07332) for EDSEYYKAFEE [CASQ2_Y179] was 1.34

The recorded phosphorylation enrichment with Fes (UniProt P07332) for DPFHVYIKNHV [KCNE3_Y95_R99H_YF] was 1.32

The recorded phosphorylation enrichment with Fes (UniProt P07332) for KKCTRYIDCDR [ASPA_Y64_L69R] was 1

The recorded phosphorylation enrichment with Fes (UniProt P07332) for SVGVPYEPPEV [TP53_Y220_V217G] was 1.29

The recorded phosphorylation enrichment with Fes (UniProt P07332) for GADDSYFTARS [ZAP70_Y492_YF] was 0.79

The recorded phosphorylation enrichment with Fes (UniProt P07332) for HYEDGYPGGSD [CTNND1_Y221] was 1.28

The recorded phosphorylation enrichment with Fes (UniProt P07332) for RAEAQYLLVSN [LRIG1_Y1054] was 0.761

The recorded phosphorylation enrichment with Fes (UniProt P07332) for CRIELYRIVES [IGFBP1_Y181_V183I] was 1.49

The recorded phosphorylation enrichment with Fes (UniProt P07332) for GLSSAYGDLTS [KRT8_Y427_G429D] was 0.659

The recorded phosphorylation enrichment with Fes (UniProt P07332) for ARSHIYTFSSC [MEFV_Y741_A744S] was 0.917

The recorded phosphorylation enrichment with Fes (UniProt P07332) for VTAALYGRLYE [BTD_Y536] was 1.04

The recorded phosphorylation enrichment with Fes (UniProt P07332) for SECCKYKTDNP [OSMR_Y689_I691T] was 0.752

The recorded phosphorylation enrichment with Fes (UniProt P07332) for SARSAYQEAMD [SFN_Y151] was 0.854

The recorded phosphorylation enrichment with Fes (UniProt P07332) for KFMVGYEMLAK [GALT_Y339_Q344K] was 1.03

The recorded phosphorylation enrichment with Fes (UniProt P07332) for DLAGRYYALRS [CKB_Y173_K177R] was 0.649

The recorded phosphorylation enrichment with Fes (UniProt P07332) for DLDFTYIYPNI [PTEN_Y27_L25F] was 1.23

The recorded phosphorylation enrichment with Fes (UniProt P07332) for LERYIYNRQEF [HLA-DPB1_Y59_E62Q] was 1.01

The recorded phosphorylation enrichment with Fes (UniProt P07332) for RRGTRYMFSRP [RPL21_Y13] was 0.594

The recorded phosphorylation enrichment with Fes (UniProt P07332) for DKTGEYPVPLI [ACADM_Y73] was 0.957

The recorded phosphorylation enrichment with Fes (UniProt P07332) for YSQNIYIQNRN [PKP2_Y631] was 0.706

The recorded phosphorylation enrichment with Fes (UniProt P07332) for RRIHCYRGHLW [VHL_Y112_S111C] was 1.17

The recorded phosphorylation enrichment with Fes (UniProt P07332) for FFDANYDGKEF [MAPRE2_Y162_YF] was 1.42

The recorded phosphorylation enrichment with Fes (UniProt P07332) for FIGCIYLYLTK [GARS1_Y414_R412C] was 0.96

The recorded phosphorylation enrichment with Fes (UniProt P07332) for DIDKIYVRTGI [PIK3CA_Y355] was 0.934

The recorded phosphorylation enrichment with Fes (UniProt P07332) for RGRSTCYWPRP [GAGE12J_Y9_Y9C] was 0.756

The recorded phosphorylation enrichment with Fes (UniProt P07332) for FRVAGYKTQGG [TIA1_Y383_E384K_YF] was 0.624

The recorded phosphorylation enrichment with Fes (UniProt P07332) for QMVGMYASFFM [AVPR2_Y124_S127F_YF] was 2.03

The recorded phosphorylation enrichment with Fes (UniProt P07332) for VEGIGYDFIPT [CBS_Y308] was 1.12

The recorded phosphorylation enrichment with Fes (UniProt P07332) for RLSELYLRRNP [CFAP410_Y68_R73P] was 0.83

The recorded phosphorylation enrichment with Fes (UniProt P07332) for VLALWYYYLTN [ZDHHC23_Y127_H132N] was 1.81

###

Target: c-Src SH2;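 further: peptide library displayed on the E. coli surface as eCPX fusions, selected cells deep-sequenced, score is each peptide's frequency after selection divided by its frequency in the input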
Experiment: SH2 binding enrichment of the phosphorylated peptide, bacterial display (enrichment ratio); higher = better substrate or ligand; peptides without Tyr show the background
READOUT NAME: SH2 binding enrichment
The answer should be written as a number, with no unit following it.

The sequence identified as QTEAEYRFIFM [PTPN11_Y511_Q510E_YF] registered its SH2 binding enrichment at 0.364

The sequence identified as FLENFYDLKKD [MMP3_Y42_YF] registered its SH2 binding enrichment at 0.519

The sequence identified as DTKDDYNALSV [IL17RB_Y457] registered its SH2 binding enrichment at 0.498

The sequence identified as YQRITYHNWRH [PDE6B_Y556_R552Q] registered its SH2 binding enrichment at 2.5

The sequence identified as KKCTRYIDCDR [ASPA_Y64_L69R] registered its SH2 binding enrichment at 0.839

The sequence identified as SGIYQYNIAKF [FOXL2_Y83_I84N] registered its SH2 binding enrichment at 1.01

The sequence identified as LNWIFYKDQTG [RS1_Y166_YF] registered its SH2 binding enrichment at 0.657

The sequence identified as DLDPNYVVSSR [CKM_Y125_L127V] registered its SH2 binding enrichment at 0.488

The sequence identified as KLIMECLPFGS [JAK2_Y931_Y931C_YF] registered its SH2 binding enrichment at 0.559

The sequence identified as IGRHAYGDQFR [IDH1_Y135_YF] registered its SH2 binding enrichment at 0.817

The sequence identified as ENRKYYKDLKE [PURA_Y156_M157K] registered its SH2 binding enrichment at 0.592

The sequence identified as CKRQFYLFKGK [RSPO4_Y112_YF] registered its SH2 binding enrichment at 1.07

The sequence identified as PSPTKYSLSPS [RANBP2_Y785_R784K] registered its SH2 binding enrichment at 0.41

The sequence identified as LKETGYVVERP [BCLAF1_Y466] registered its SH2 binding enrichment at 0.501

The sequence identified as KAIMTYVFSFY [ACTN4_Y260_S262F] registered its SH2 binding enrichment at 0.561

The sequence identified as AGQEDYDRLRP [CDC42_Y64] registered its SH2 binding enrichment at 0.609

The sequence identified as AKAEIYEMRPL [COX10_Y97] registered its SH2 binding enrichment at 0.573

The sequence identified as QTLTDYDIRFY [CSNK2A1_Y131] registered its SH2 binding enrichment at 0.548

The sequence identified as LLSISYVGCSL [ADGRD1_Y571_S567L] registered its SH2 binding enrichment at 0.54

The sequence identified as FIGCIYLYLTK [GARS1_Y414_R412C] registered its SH2 binding enrichment at 1.04

The sequence identified as PNRILYGDFWQ [MYH6_Y717_R721W] registered its SH2 binding enrichment at 0.467

The sequence identified as STSKTYVISRT [RBBP6_Y87] registered its SH2 binding enrichment at 0.476

The sequence identified as HYEDGYPGGSD [CTNND1_Y221] registered its SH2 binding enrichment at 0.924

The sequence identified as SVTCTCSPALN [TP53_Y126_Y126C] registered its SH2 binding enrichment at 0.472

###

Target: FGFR1 (UniProt P11362)
Sequence (P11362 whole entry, looked up): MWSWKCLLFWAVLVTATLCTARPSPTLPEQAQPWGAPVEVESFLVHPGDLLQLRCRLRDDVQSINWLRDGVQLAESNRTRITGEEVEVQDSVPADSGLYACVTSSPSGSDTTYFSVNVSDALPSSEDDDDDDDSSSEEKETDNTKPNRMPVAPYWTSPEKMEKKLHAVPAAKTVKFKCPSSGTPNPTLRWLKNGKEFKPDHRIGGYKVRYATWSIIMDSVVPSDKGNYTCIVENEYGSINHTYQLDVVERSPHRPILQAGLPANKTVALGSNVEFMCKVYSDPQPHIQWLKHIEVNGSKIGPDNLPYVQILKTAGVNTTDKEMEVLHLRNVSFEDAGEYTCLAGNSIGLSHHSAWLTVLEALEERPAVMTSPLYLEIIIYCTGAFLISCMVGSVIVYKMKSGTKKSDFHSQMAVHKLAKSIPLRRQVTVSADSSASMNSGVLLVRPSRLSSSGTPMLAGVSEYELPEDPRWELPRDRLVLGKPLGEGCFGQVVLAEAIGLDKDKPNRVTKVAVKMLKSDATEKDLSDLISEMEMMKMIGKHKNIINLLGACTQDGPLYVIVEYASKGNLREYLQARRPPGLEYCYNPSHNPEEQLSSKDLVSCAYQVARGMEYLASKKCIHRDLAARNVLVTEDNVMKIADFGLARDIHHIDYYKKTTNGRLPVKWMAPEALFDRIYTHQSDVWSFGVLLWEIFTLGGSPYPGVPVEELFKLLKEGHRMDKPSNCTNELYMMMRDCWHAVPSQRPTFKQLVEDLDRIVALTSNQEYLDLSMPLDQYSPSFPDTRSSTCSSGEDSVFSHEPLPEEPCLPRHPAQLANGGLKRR
Assay: phosphorylation enrichment, bacterial display (enrichment ratio); higher = better substrate or ligand; peptides without Tyr show the background
Use phosphorylation enrichment to assign classes; range list: bucket 1 (below 0.5), bucket 2 (0.5 to below 0.8), bucket 3 (0.8 or more)

### Prompt # classify by phosphorylation enrichment band: LKLKAYRFSIS [LCT_Y974_V971L]
### Response bucket 3

### Prompt # classify by phosphorylation enrichment band: VIKDKYPKAHF [APTX_Y209_R213H_YF]
### Response bucket 1

### Prompt # classify by phosphorylation enrichment band: KGSEGYLAAIF [NF1_Y2503_T2507I_YF]
### Response bucket 1

### Prompt # classify by phosphorylation enrichment band: LLSISYVGCSL [ADGRD1_Y571_S567L]
### Response bucket 3

### Prompt # classify by phosphorylation enrichment band: LRRREYQRQDF [PRKRIP1_Y90_YF]
### Response bucket 2

### Prompt # classify by phosphorylation enrichment band: YGGRDYSLDEF [MYOF_Y1705]
### Response bucket 2

### Prompt # classify by phosphorylation enrichment band: DTKDDYNALSV [IL17RB_Y457]
### Response bucket 2

### Prompt # classify by phosphorylation enrichment band: RVQKRYILDNV [RCN1_Y115_F117L]
### Response bucket 1

### Prompt # classify by phosphorylation enrichment band: SYCYRYRCAAW [SUMF1_Y344_R349W]
### Response bucket 2

### Prompt # classify by phosphorylation enrichment band: LTRDIYKNDFF [ROS1_Y2110_A2106T_YF]
### Response bucket 3

### Prompt # classify by phosphorylation enrichment band: LEFNEYFRDLN [HPRT1_Y198_D194E_YF]
### Response bucket 3

### Prompt # classify by phosphorylation enrichment band: SETSRYLSDLF [KCNJ3_Y67]
### Response bucket 2
